TARGET_OF_ASSAY: HRP-3 (Homo sapiens, UniProt Q9Y3E1)
Construct: The HRP-3 coding region was cloned into the pET30 vector using EcoRI and NdeI as restriction sites; made in house; host or cells: E. coli BL21
Sequence (Q9Y3E1 whole entry): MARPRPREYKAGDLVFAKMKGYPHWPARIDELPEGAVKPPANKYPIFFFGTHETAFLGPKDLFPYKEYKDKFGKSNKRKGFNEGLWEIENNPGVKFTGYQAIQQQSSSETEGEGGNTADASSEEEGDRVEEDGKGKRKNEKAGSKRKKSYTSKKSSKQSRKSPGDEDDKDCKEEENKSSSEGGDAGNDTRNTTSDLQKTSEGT
PROTOCOL: 3T3 migration in vitro assay: prevention of HRP-3 function by DNA duplexes
Assay type: cell-based, mouse
OBSERVABLE: activity in abolishing the anti-migratory effect of HRP-3 on 3T3 cells

Duplex 3: derived DNA double strand designed to test different molecular shapes (chain 1 TACAACAAACCCACAAA; chain 2 TTTGTGGGTGTTGTA; chain 1: DNA, backbone and methylation of C not given here; chain 2: DNA, backbone not given here); no activity
Duplex 4: derived DNA double strand with base changes versus Duplex 1, to test importance of sequence for binding (chain 1 CACACACACACACAC; chain 2 GTGTGTGTGTGTGTG; chain 1: DNA, backbone and methylation of C not given here; chain 2: DNA, backbone not given here); no activity

Sourced from patent US8710021B2
